Tested on: MCF7
Assay: Anticancer activity against human MCF7 cells assessed as viable cells at 100 uM after 48 hrs by SRB assay relative to control
Format: functional
Decide using fold change (FC) alone. Strictly below 0.3: Y. Equal to or above 0.3: N.

The examples below pair each entry with its known result.
- Cc1ccc(S(=O)(=O)NC2=C(C#N)C(c3ccc(Cl)cc3)c3sc(Nc4ccc(S(N)(=O)=O)cc4)nc3O2)cc1 (centres undefined): N
- NC(=O)C1=C(N)Oc2nc(Nc3ccc(S(N)(=O)=O)cc3)sc2C1c1ccc(Cl)cc1 (centres undefined): Y
- CC(=O)N(C(C)=O)C1=C(C#N)C(c2ccc(Cl)cc2)c2sc(Nc3ccc(S(N)(=O)=O)cc3)nc2O1 (centres undefined): N
- Nc1ncnc2c1C(c1ccc(Cl)cc1)c1sc(Nc3ccc(S(N)(=O)=O)cc3)nc1O2 (centres undefined): Y

Q: Confirm or reject: fold change (FC) of N#CC1=C(NC(N)=O)Oc2nc(Nc3ccc(S(N)(=O)=O)cc3)sc2C1c1ccc(Cl)cc1 (centres undefined) lies strictly below 0.3
Ans: Y

Q: Is it true that fold change (FC) reported for Nc1nc(=S)[nH]c2c1C(c1ccc(Cl)cc1)c1sc(Nc3ccc(S(N)(=O)=O)cc3)nc1O2 (centres undefined) is less than 0.3?
Ans: N

Q: I'd appreciate it if you could check whether N#CC1=C(N)Oc2nc(Nc3ccc(S(N)(=O)=O)cc3)sc2C1c1ccc(Cl)cc1 (centres undefined) has fold change (FC) smaller than 0.3.
Ans: Y

Q: Report whether reported fold change (FC) is lower than 0.3 (strictly) for N#CC1=C(NC(=O)CCl)Oc2nc(Nc3ccc(S(N)(=O)=O)cc3)sc2C1c1ccc(Cl)cc1 (centres undefined)
Ans: Y

Q: # strict comparison: is reported fold change (FC) < 0.3? input = NS(=O)(=O)c1ccc(Nc2nc3c(s2)C(c2ccc(Cl)cc2)c2c(nc[nH]c2=O)O3)cc1 (centres undefined)
Ans: Y

Q: Does the reported fold change (FC) of Nc1nc(=O)[nH]c2c1C(c1ccc(Cl)cc1)c1sc(Nc3ccc(S(N)(=O)=O)cc3)nc1O2 (centres undefined) stay below 0.3?
Ans: N

Q: Strictly below 0.3: is that where fold change (FC) of CC(=O)NC1=C(C#N)C(c2ccc(Cl)cc2)c2sc(Nc3ccc(S(N)(=O)=O)cc3)nc2O1 (centres undefined) sits?
Ans: Y

Q: # strict comparison: is reported fold change (FC) < 0.3? input = N#CC1=C(/N=C/c2ccccc2)Oc2nc(Nc3ccc(S(N)(=O)=O)cc3)sc2C1c1ccc(Cl)cc1 (centres undefined)
Ans: N

Q: Is fold change (FC) of N#CC1=C(NS(=O)(=O)c2ccccc2)Oc2nc(Nc3ccc(S(N)(=O)=O)cc3)sc2C1c1ccc(Cl)cc1 (centres undefined) strictly below 0.3?
Ans: N
